- MEASURED TARGET: Calcium-activated potassium channel subunit alpha-1 (Homo sapiens)
- ASSAY TEXT: Activation of human BK alpha channel expressed in CHO-K1 cells assessed as ionic current at 30 uM by patch clamp electrophysiological assay relative to control
- Type: cell-based
ENDPOINT NAME: Activity (%)

CO/N=C1\C[C@H]2[C@](C)(C(=O)O)CCC[C@]2(C)c2cc(Cl)c(C(C)C)c(Cl)c21 :: 213
C=CCO/N=C1\C[C@H]2[C@@](C)(C(=O)O)CCC[C@]2(C)c2cc(OCCCc3ccccc3)ccc21 :: 160
CCO/N=C1\C[C@H]2[C@](C)(C(=O)O)CCC[C@]2(C)c2cc(Cl)c(C(C)C)c(Cl)c21 :: 212
CO/N=C1\C[C@H]2[C@@](C)(C(=O)O)CCC[C@]2(C)c2cc(OCCCc3ccccc3)ccc21 :: 151
CO/N=C1\C[C@H]2[C@@](C)(C(=O)O)CCC[C@]2(C)c2cc(O)ccc21 :: 103
CC(C)CCO/N=C1\C[C@H]2[C@](C)(C(=O)O)CCC[C@]2(C)c2cc(Cl)c(C(C)C)c(Cl)c21 :: 145

1. CC(C)c1ccc2c(c1)/C(=N/O)C[C@H]1[C@](C)(C(=O)O)CCC[C@]21C
2. CC(C)c1c(Cl)c(Cl)c2c(c1Cl)/C(=N/O)C[C@H]1[C@](C)(C(=O)O)CCC[C@]21C
Exercise: Lower value of Activity belongs to which: 1 or 2 ? Please indicate the selected item by its label.
Key: 1

* * *

- MEASURED TARGET: Calcium-activated potassium channel subunit alpha-1 (Homo sapiens) (UniProt Q12791)
- Sequence (Q12791 whole entry): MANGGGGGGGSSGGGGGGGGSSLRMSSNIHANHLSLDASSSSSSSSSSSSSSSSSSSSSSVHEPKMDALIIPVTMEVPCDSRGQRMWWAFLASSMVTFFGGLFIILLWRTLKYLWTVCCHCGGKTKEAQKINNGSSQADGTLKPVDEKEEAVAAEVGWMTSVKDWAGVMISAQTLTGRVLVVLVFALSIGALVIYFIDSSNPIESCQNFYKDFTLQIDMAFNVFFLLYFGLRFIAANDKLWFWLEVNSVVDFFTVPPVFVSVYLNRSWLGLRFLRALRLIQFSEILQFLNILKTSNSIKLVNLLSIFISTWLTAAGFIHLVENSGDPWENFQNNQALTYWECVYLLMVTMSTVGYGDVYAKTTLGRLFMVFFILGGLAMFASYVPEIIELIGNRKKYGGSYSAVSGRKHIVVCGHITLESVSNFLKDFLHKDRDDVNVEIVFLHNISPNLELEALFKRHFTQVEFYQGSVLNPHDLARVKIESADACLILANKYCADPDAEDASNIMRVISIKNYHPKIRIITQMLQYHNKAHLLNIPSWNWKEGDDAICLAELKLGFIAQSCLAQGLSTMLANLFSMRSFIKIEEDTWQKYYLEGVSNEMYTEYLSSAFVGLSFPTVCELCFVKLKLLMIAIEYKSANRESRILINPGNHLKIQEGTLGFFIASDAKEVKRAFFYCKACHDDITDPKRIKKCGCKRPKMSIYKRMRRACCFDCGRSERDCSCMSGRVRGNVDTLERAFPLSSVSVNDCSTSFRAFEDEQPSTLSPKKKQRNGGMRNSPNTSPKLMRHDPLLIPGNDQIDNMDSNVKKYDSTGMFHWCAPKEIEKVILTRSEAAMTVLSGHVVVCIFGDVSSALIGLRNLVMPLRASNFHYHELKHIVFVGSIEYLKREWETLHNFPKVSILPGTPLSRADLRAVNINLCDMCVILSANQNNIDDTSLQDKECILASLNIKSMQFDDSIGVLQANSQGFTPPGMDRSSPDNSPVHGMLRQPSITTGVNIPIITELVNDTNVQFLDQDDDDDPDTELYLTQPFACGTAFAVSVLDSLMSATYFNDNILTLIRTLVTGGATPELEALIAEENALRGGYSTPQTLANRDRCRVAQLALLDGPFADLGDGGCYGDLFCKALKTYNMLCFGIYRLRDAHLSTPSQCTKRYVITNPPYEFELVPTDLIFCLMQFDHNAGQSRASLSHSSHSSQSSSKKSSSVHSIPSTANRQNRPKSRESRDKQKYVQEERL
- ASSAY TEXT: Activation of human BK alpha channel expressed in CHO-K1 cells assessed as ionic current at 30 uM by patch clamp electrophysiological assay relative to control
- Assay type: cell-based
ENDPOINT NAME: Activity (%)

I. CC(C)O/N=C1\C[C@H]2[C@](C)(C(=O)O)CCC[C@]2(C)c2cc(Cl)c(C(C)C)c(Cl)c21
II. CC(C)c1c(Cl)cc2c(c1Cl)C(=O)C[C@H]1[C@](C)(C(=O)O)CCC[C@]21C
Exercise: Just curious, which one has the larger Activity reading, I or II ? Please indicate the selected item by its label.
Key: I

* * *

- MEASURED TARGET: Calcium-activated potassium channel subunit alpha-1 (Homo sapiens) (UniProt Q12791)
- ASSAY TEXT: Activation of human BK alpha channel expressed in CHO-K1 cells assessed as ionic current at 30 uM by patch clamp electrophysiological assay relative to control
- Type: cell-based
ENDPOINT NAME: Activity (%)

CCCO/N=C1\C[C@H]2[C@](C)(C(=O)O)CCC[C@]2(C)c2cc(Cl)c(C(C)C)c(Cl)c21 :: 192
CC(C)c1cc2c(cc1Br)[C@@]1(C)CCC[C@@](C)(C(=O)O)[C@@H]1CC2=O :: 166
CC(C)=CCO/N=C1\C[C@H]2[C@@](C)(C(=O)O)CCC[C@]2(C)c2cc(OCCCc3ccccc3)ccc21 :: 138
CC(C)c1cc2c(cc1Br)[C@@]1(C)CCC[C@@](C)(C(=O)O)[C@@H]1C/C2=N\O :: 162
CC(C)c1c(Cl)cc2c(c1Cl)/C(=N/O)C[C@H]1[C@](C)(C(=O)O)CCC[C@]21C :: 137
C[C@]1(C(=O)O)CCC[C@]2(C)c3cc(OCCCc4ccccc4)ccc3/C(=N/O)C[C@@H]12 :: 134
CO/N=C1/c2ccc(OCCCc3ccccc3)cc2[C@@]2(C)CCC[C@](C)(C(=O)O)[C@@H]2C1O (stereo partly drawn) :: 125
CC(C)c1c(Cl)cc2c(c1Cl)/C(=N/OCC1CC1)C[C@H]1[C@](C)(C(=O)O)CCC[C@]21C :: 181
C#CCO/N=C1\C[C@H]2[C@](C)(C(=O)O)CCC[C@]2(C)c2ccc(C(C)C)cc21 :: 142
C#CCO/N=C1\C[C@H]2[C@@](C)(C(=O)O)CCC[C@]2(C)c2cc(OCCCc3ccccc3)ccc21 :: 166
C[C@]1(C(=O)O)CCC[C@]2(C)c3cc(OCCCc4ccccc4)ccc3/C(=N/OCc3ccccc3)C[C@@H]12 :: 152
CC(C)c1c(Cl)cc2c(c1Cl)/C(=N/OCC1CCCCC1)C[C@H]1[C@](C)(C(=O)O)CCC[C@]21C :: 129
CO/N=C1\C[C@H]2[C@](C)(C(=O)O)CCC[C@]2(C)c2ccc(C(C)C)cc21 :: 153

Data provenance: ChEMBL document CHEMBL1287782
